Below, each of the compounds is paired with its reported EC50 value.
- Tested on: progranulin (PGRN) secretion, BV-2 cells
- assaySummary: PGRN assay: progranulin induction cellular assay (ELISA of secreted mouse PGRN)
- Format: cell-based
- particulars: Mus musculus, BV-2, PGRN assay, Table D; secreted mouse PGRN in cell culture medium, ELISA
- Description: Cellular Assays: To measure the efficacy of compounds, a progranulin induction cellular assay in mouse primary microglia (pMG), primary cortical neurons, and BV-2 cell lines is used. BV-2 cells are split the day before plating into a 96 well plate format at approximately 80%. Cells should be plated the day before and allowed for 1 hour attachment period and for 16 hour incubation. […] Standard ELISA kits to measure PGRN are available from vendors such as Adipogen, R&D, and Biovendor.
Counter-ions that a name gives are not always drawn.
reportedProperty: EC50 (nM)

| compound | reportedProperty | unitsOfMeasure | censoringOperator | reading |
| --- | --- | --- | --- | --- |
| O=C(OC[C@@H]1CCN1)N1CCc2ccccc2[C@@H]1c1ccc(F)cc1 [Compound 2239] | EC50 | nM | = | 1140 |
| CN1CC[C@H](O)[C@@H](OC(=O)N2CCc3ccccc3[C@@H]2c2ccc(F)cc2)[C@@H]1CO (single isomer, unassigned) [Compound 2305] | EC50 | nM | = | 5870 |
| O=C(N[C@H]1CNC[C@@H]1F)N1CCc2ccccc2[C@@H]1c1ccc(F)cc1 [Compound 2351] | EC50 | nM | = | 130 |
| O=C(NC[C@H]1CCCN1)N1CCc2ccccc2[C@H]1c1ccc(F)cc1 (single isomer, unassigned) [Compound 2219] | EC50 | nM | = | 6210 |
| O=C(O[C@H]1CCNC1)N1CCc2ccccc2[C@H]1c1ccc(F)cc1 [Compound 2272] | EC50 | nM | = | 2030 |
| CN(C(=O)N1CCc2ccccc2[C@@H]1c1ccc(F)cc1)[C@@H]1CCNC1 [Compound 2253] | EC50 | nM | = | 110 |
| CC1(C)CNC[C@@H]1NC(=O)N1CCc2ccccc2[C@@H]1c1ccc(F)cc1 [Compound 2268] | EC50 | nM | = | 180 |
| O=C(N[C@@H]1CNC[C@@H]1F)N1CCc2ccccc2[C@@H]1c1ccc(F)cc1 [Compound 2353] | EC50 | nM | = | 33.9 |
| O=C(O[C@@H]1CNCCOC1)N1CCc2ccccc2[C@@H]1c1ccc(F)cc1 [Compound 2260] | EC50 | nM | = | 730 |
| CN1CC(CNC(=O)N2CCc3ccccc3[C@@H]2c2ccc(F)cc2)C1 [Compound 2282] | EC50 | nM | > | 10000 |
| N[C@@H]1CCN(C(=O)N2CCc3ccccc3[C@@H]2c2ccc(F)cc2)C1 [Compound 2287] | EC50 | nM | = | 351 |
| O=C(O[C@H]1CNC[C@@H]1F)N1CCc2ccccc2[C@@H]1c1ccc(F)cc1 [Compound 2361] | EC50 | nM | = | 365 |
| O=C1N[C@H](CNC(=O)N2CCc3ccccc3[C@@H]2c2ccc(F)cc2)CO1 [Compound 2259] | EC50 | nM | > | 10000 |
| O=C(N[C@H]1CNCCOC1)N1CCc2ccccc2[C@H]1c1ccc(F)cc1 (single isomer, unassigned) [Compound 2278] | EC50 | nM | = | 439 |
| CNC[C@@H]1CN(C(=O)N2CCc3ccccc3[C@@H]2c2ccc(F)cc2)CCO1 [Compound 2306] | EC50 | nM | = | 129 |
| O=C(N1CC[C@]2(CNCCO2)C1)N1CCc2ccccc2[C@@H]1c1ccc(F)cc1 (single isomer, unassigned) [Compound 2326] | EC50 | nM | = | 189 |
| CC1(C)CNC[C@@H]1OC(=O)N1CCc2ccccc2[C@@H]1c1ccc(F)cc1 [Compound 2291] | EC50 | nM | = | 591 |
| O=C(N1CCNCC(F)(F)C1)N1CCc2ccccc2[C@@H]1c1ccc(F)cc1 [Compound 2262] | EC50 | nM | > | 10000 |
| O=C(O[C@H]1CNCC1(F)F)N1CCc2ccccc2[C@@H]1c1ccc(F)cc1 [Compound 2241] | EC50 | nM | = | 8790 |
| O=C(NC[C@H]1CNCCO1)N1CCc2ccccc2[C@@H]1c1ccc(F)cc1 (single isomer, unassigned) [Compound 2210] | EC50 | nM | = | 860 |
| CN1C[C@H](N(C)C(=O)N2CCc3ccccc3[C@@H]2c2ccc(F)cc2)C(F)(F)C1 [Compound 2299] | EC50 | nM | > | 10000 |
| O=C(N[C@@H]1CNC[C@H]1F)N1CCc2ccccc2[C@@H]1c1ccc(F)cc1 [Compound 2360] | EC50 | nM | = | 148 |
| CN1CCCN(C(=O)N2CCc3ccccc3[C@@H]2c2ccc(F)cc2)CC1 [Compound 2269] | EC50 | nM | = | 656 |
| O=C(O[C@@H]1CNCC12CC2)N1CCc2ccccc2[C@@H]1c1ccc(F)cc1 (stereo in doubt) [Compound 2310] | EC50 | nM | = | 501 |
| NC[C@H]1CN(C(=O)N2CCc3ccccc3[C@@H]2c2ccc(F)cc2)CCO1 [Compound 2303] | EC50 | nM | = | 329 |
| O=C(OCC[C@@H]1CN2CCC1CC2)N1CCc2ccccc2[C@@H]1c1ccc(F)cc1 [Compound 2206, formate] | EC50 | nM | = | 1990 |
| CN1CC[C@H](N(C)C(=O)N2CCc3ccccc3[C@@H]2c2ccc(F)cc2)C1 [Compound 2270] | EC50 | nM | = | 515 |
| CN(C(=O)N1CCc2ccccc2[C@@H]1c1ccc(F)cc1)[C@H]1CCCNC1 (single isomer, unassigned) [Compound 2211] | EC50 | nM | = | 3030 |
| O=C(OCC1(F)CNC1)N1CCc2ccccc2[C@@H]1c1ccc(F)cc1 [Compound 2258] | EC50 | nM | = | 270 |
| O=C(N[C@@H]1CCNC1)N1CCc2ccccc2[C@@H]1c1ccc(F)cc1 [Compound 2223] | EC50 | nM | = | 1580 |
| CN1CCC(C(O)C(=O)N2CCc3ccccc3[C@@H]2c2ccc(F)cc2)C1 (stereo partly shown) [Compound 2267] | EC50 | nM | = | 130 |
